// cross-study collection: IC50 for Polyunsaturated fatty acid 5-lipoxygenase (Homo sapiens)
Assign labels as follows, please: Met for IC50 below 2000 nM; Not met for IC50 equal to or exceeding 2000 nM.

[[record]]
molecule = "CN(O)C(=O)CCCCc1ccccc1"
target_desc = "Polyunsaturated fatty acid 5-lipoxygenase (Homo sapiens)"
cat = "Met"

[[record]]
molecule = "CC1Cc2c(OCc3ccc(-c4ccccc4)cn3)ccc3c2c(c(CCOc2ccccc2CC(=O)O)n3Cc2cccc(F)c2)S1 (centres undefined)"
target_desc = "Polyunsaturated fatty acid 5-lipoxygenase (Homo sapiens)"
cat = "Met"

[[record]]
molecule = "CC(C)(C)Sc1c(CC(C)(C)C(=O)O)n(Cc2ccc(Cl)cc2)c2ccc(OCc3ccc4ccccc4n3)cc12"
target_desc = "Polyunsaturated fatty acid 5-lipoxygenase (Homo sapiens)"
cat = "Not met"

[[record]]
molecule = "COC1(c2cccc(OCc3ccc4ccccc4c3)c2)CCOCC1"
target_desc = "Polyunsaturated fatty acid 5-lipoxygenase (Homo sapiens)"
cat = "Met"

[[record]]
molecule = "COc1cc(O)c2c(c1)oc(=O)c1c3cc(O)c(O)cc3oc21"
target_desc = "Polyunsaturated fatty acid 5-lipoxygenase (Homo sapiens)"
cat = "Not met"

[[record]]
molecule = "CC(C)(C)c1cc(/C=N/NC(=O)c2ccccc2O)c(O)c(C(C)(C)C)c1"
target_desc = "Polyunsaturated fatty acid 5-lipoxygenase (Homo sapiens)"
cat = "Not met"

[[record]]
molecule = "COc1cccc(NC2=NS(=O)(=O)c3cc([N+](=O)[O-])ccc32)c1"
target_desc = "Polyunsaturated fatty acid 5-lipoxygenase (Homo sapiens)"
cat = "Met"

[[record]]
molecule = "CC(C)(C)c1cc(/C=N/NC(=O)c2ccncc2)c(O)c(C(C)(C)C)c1"
target_desc = "Polyunsaturated fatty acid 5-lipoxygenase (Homo sapiens)"
cat = "Not met"

[[record]]
molecule = "O=C(OCC#CCSc1nnc(-c2cccc3ccccc23)o1)c1ccccc1"
target_desc = "Polyunsaturated fatty acid 5-lipoxygenase (Homo sapiens)"
cat = "Not met"

[[record]]
molecule = "O=C(C(=O)N1CCOCC1)c1cn(C(=O)/C=C/c2ccccc2)c2ccccc12"
target_desc = "Polyunsaturated fatty acid 5-lipoxygenase (Homo sapiens)"
cat = "Not met"

[[record]]
molecule = "O=[N+]([O-])c1ccc2c(c1)S(=O)(=O)N=S2c1ccc(Br)cc1 (centres undefined)"
target_desc = "Polyunsaturated fatty acid 5-lipoxygenase (Homo sapiens)"
cat = "Met"

[[record]]
molecule = "COc1ccc(CCCC(=O)N(O)CCc2ccccc2)cc1"
target_desc = "Polyunsaturated fatty acid 5-lipoxygenase (Homo sapiens)"
cat = "Met"

[[record]]
molecule = "O=C(OCC#CCSc1nnc(-c2cccc3ccccc23)o1)c1ccc(F)c(F)c1"
target_desc = "Polyunsaturated fatty acid 5-lipoxygenase (Homo sapiens)"
cat = "Not met"

[[record]]
molecule = "COC1(c2cccc(COc3ccc4ccccc4c3)c2)CCOCC1"
target_desc = "Polyunsaturated fatty acid 5-lipoxygenase (Homo sapiens)"
cat = "Met"

[[record]]
molecule = "COc1cccc(CNc2ccc(S(=O)(=O)Nc3nc4c(ccc5ccccc54)s3)cc2)c1O"
target_desc = "Polyunsaturated fatty acid 5-lipoxygenase (Homo sapiens)"
cat = "Not met"

[[record]]
molecule = "Cc1ccc(S(=O)(=O)n2cc(C(=O)C(=O)N3CCCC3)c3ccccc32)cc1"
target_desc = "Polyunsaturated fatty acid 5-lipoxygenase (Homo sapiens)"
cat = "Met"

[[record]]
molecule = "CC1(C)CCC[C@]2(C)[C@H]3C=C4C=C(O)C(=O)C=C4O[C@@]3(C)CC[C@@H]12"
target_desc = "Polyunsaturated fatty acid 5-lipoxygenase (Homo sapiens)"
cat = "Met"

[[record]]
molecule = "CN(O)C(=O)Cc1ccc(OCc2ccc3ccccc3n2)cc1"
target_desc = "Polyunsaturated fatty acid 5-lipoxygenase (Homo sapiens)"
cat = "Met"

[[record]]
molecule = "CCCCCc1ccc(S(=O)(=O)NCCc2nc(-c3cccs3)[nH]c2-c2ccc(OC)cc2)cc1"
target_desc = "Polyunsaturated fatty acid 5-lipoxygenase (Homo sapiens)"
cat = "Not met"

[[record]]
molecule = "CC(C)(C)c1cccc(NC2=NS(=O)(=O)c3cc([N+](=O)[O-])ccc32)c1"
target_desc = "Polyunsaturated fatty acid 5-lipoxygenase (Homo sapiens)"
cat = "Met"

[[record]]
molecule = "CC1Cc2c(OCc3ccc(-c4ccccc4)cn3)ccc3c2c(c(CCc2ccccc2C(=O)O)n3Cc2ccc(Cl)cc2)S1 (centres undefined)"
target_desc = "Polyunsaturated fatty acid 5-lipoxygenase (Homo sapiens)"
cat = "Met"

[[record]]
molecule = "CC1Cc2c(OCc3ccc(-c4ccccc4)cn3)ccc3c2c(c(CCOc2ccccc2CC(=O)O)n3Cc2cccc(Cl)c2)S1 (centres undefined)"
target_desc = "Polyunsaturated fatty acid 5-lipoxygenase (Homo sapiens)"
cat = "Met"

[[record]]
molecule = "CCCCCc1ccc(S(=O)(=O)NCCc2c(-c3ccc(OC)cc3)[nH]c3ccccc23)cc1"
target_desc = "Polyunsaturated fatty acid 5-lipoxygenase (Homo sapiens)"
cat = "Not met"

[[record]]
molecule = "CC(=O)N(O)Cc1ccc(OCc2ccccc2)cc1"
target_desc = "Polyunsaturated fatty acid 5-lipoxygenase (Homo sapiens)"
cat = "Met"

[[record]]
molecule = "O=[N+]([O-])c1ccc2c(c1)S(=O)(=O)N=C2NCc1cccc(Br)c1"
target_desc = "Polyunsaturated fatty acid 5-lipoxygenase (Homo sapiens)"
cat = "Not met"

[[record]]
molecule = "O=C(OCC#CCSc1nnc(-c2ccc3ccccc3c2)o1)c1ccc(F)cc1"
target_desc = "Polyunsaturated fatty acid 5-lipoxygenase (Homo sapiens)"
cat = "Not met"

[[record]]
molecule = "N=c1c2c(ncn1-c1ccccc1)Oc1[nH]c(=S)[nH]c(=O)c1C2c1ccc(Cl)cc1 (centres undefined)"
target_desc = "Polyunsaturated fatty acid 5-lipoxygenase (Homo sapiens)"
cat = "Met"

[[record]]
molecule = "CC(C)=CCC[C@@]1(C)CCC[C@]2(C)[C@@H](Cc3cc(C(=O)O)ccc3O)C(C)=CC[C@@H]12"
target_desc = "Polyunsaturated fatty acid 5-lipoxygenase (Homo sapiens)"
cat = "Not met"

[[record]]
molecule = "O=C(OCC#CCSc1nnc(-c2cccc3ccccc23)o1)c1cc2ccccc2s1"
target_desc = "Polyunsaturated fatty acid 5-lipoxygenase (Homo sapiens)"
cat = "Not met"

[[record]]
molecule = "O=C(COc1ccccc1)N(O)CCc1ccccc1"
target_desc = "Polyunsaturated fatty acid 5-lipoxygenase (Homo sapiens)"
cat = "Met"

[[record]]
molecule = "CS(=O)(=O)Nc1ccc(-c2cn3c(c2-c2ccccc2)CCC3)cc1"
target_desc = "Polyunsaturated fatty acid 5-lipoxygenase (Homo sapiens)"
cat = "Not met"

[[record]]
molecule = "O=[N+]([O-])c1ccc2c(c1)S(=O)(=O)N=C2Nc1cccc2c(Br)cccc12"
target_desc = "Polyunsaturated fatty acid 5-lipoxygenase (Homo sapiens)"
cat = "Not met"

[[record]]
molecule = "CC1Cc2c(OCc3ccc(-c4ccccc4)cn3)ccc3c2c(c(CCOc2ccccc2C(=O)O)n3Cc2ccc(Cl)cc2)S1 (centres undefined)"
target_desc = "Polyunsaturated fatty acid 5-lipoxygenase (Homo sapiens)"
cat = "Met"

[[record]]
molecule = "CS(=O)(=O)c1ccc(-c2cn3c(c2-c2ccccc2)CCC3)cc1"
target_desc = "Polyunsaturated fatty acid 5-lipoxygenase (Homo sapiens)"
cat = "Not met"

[[record]]
molecule = "CC(C)(C)c1cc(-c2n[nH]c(=S)s2)cc(C(C)(C)C)c1O.C[N+](C)(C)CCO"
target_desc = "Polyunsaturated fatty acid 5-lipoxygenase (Homo sapiens)"
cat = "Not met"

[[record]]
molecule = "c1ccc(-c2c(-c3cccs3)cn3c2CCC3)cc1"
target_desc = "Polyunsaturated fatty acid 5-lipoxygenase (Homo sapiens)"
cat = "Not met"

[[record]]
molecule = "O=[N+]([O-])c1ccc2c(c1)S(c1ccc(Br)cc1)=NS2(=O)=O (centres undefined)"
target_desc = "Polyunsaturated fatty acid 5-lipoxygenase (Homo sapiens)"
cat = "Met"


---

// cross-study collection: pIC50 for Polyunsaturated fatty acid 5-lipoxygenase (Homo sapiens)
pIC50: −log10 of the molar value.
Use 6 as the dividing line for pIC50, with the line itself on the 1.0 side and lower values as 0.0.

[[record]]
compound = "O=C(CCOc1ccccc1)N(O)CCc1ccccc1"
cat = 1.0

[[record]]
compound = "CC(C)(C)c1cc(/C=N/NC(=O)c2cccnc2)c(O)c(C(C)(C)C)c1"
cat = 0.0

[[record]]
compound = "CNc1sc(-c2cccc3ccccc23)nc1C#N"
cat = 0.0

[[record]]
compound = "O=[N+]([O-])c1ccc2c(c1)S(=O)(=O)N=C2Nc1cccc2ccccc12"
cat = 1.0

[[record]]
compound = "CCCCCc1ccc(S(=O)(=O)NCCCc2c[nH]c3ccccc23)cc1"
cat = 0.0

[[record]]
compound = "CCC(=O)NC(c1cccs1)c1ccc2cccnc2c1O (centres undefined)"
cat = 0.0

[[record]]
compound = "O=C(Cc1ccc(OCc2ccccc2)cc1)N(O)CCCc1ccccc1"
cat = 1.0

[[record]]
compound = "CC1Cc2c(OCc3ccc(-c4ccccc4)cn3)ccc3c2c(c(COCc2ccccc2C(=O)O)n3Cc2ccc(Cl)cc2)S1 (centres undefined)"
cat = 1.0

[[record]]
compound = "Cc1ccc(N/N=C2\\C(=N)N(c3ccc(S(N)(=O)=O)cc3)N=C2N)cc1"
cat = 0.0

[[record]]
compound = "CC1Cc2c(OCc3ccc(-c4ccccc4)cn3)ccc3c2c(c(CCOc2ccc(Cl)cc2C(=O)O)n3Cc2ccc(Cl)cc2)S1 (centres undefined)"
cat = 1.0

[[record]]
compound = "NNC(=O)c1ccc(S(=O)(=O)NCCc2c(-c3cc4ccccc4o3)[nH]c3ccccc23)cc1"
cat = 0.0

[[record]]
compound = "CC(C)=CCC[C@@]1(C)CCC[C@]2(C)[C@H](Cc3cc(C(=O)O)ccc3O)C(C)=CC[C@@H]12"
cat = 0.0

[[record]]
compound = "CCOC(=O)CCCN(O)C(=O)CCCc1ccccc1"
cat = 1.0

[[record]]
compound = "CCCCCc1ccc(S(=O)(=O)NCCc2c(-c3ccccc3)[nH]c3ccccc23)cc1"
cat = 0.0

[[record]]
compound = "COc1ccc(NC2=NS(=O)(=O)c3cc([N+](=O)[O-])ccc32)cc1OC"
cat = 0.0

[[record]]
compound = "CC1Cc2c(OCc3ccc(-c4ccccc4)cn3)ccc3c2c(c(COc2ccccc2CC(=O)O)n3Cc2cccc(Cl)c2)S1 (stereo in doubt; 14b)"
cat = 1.0

[[record]]
compound = "CC1(C)CCC[C@]2(C)[C@H]3C=C4C(=CC(=O)[C@@H]4O)O[C@@]3(C)CC[C@@H]12"
cat = 0.0

[[record]]
compound = "CN(O)C(=O)/C=C/c1cccc(Oc2ccccc2)c1"
cat = 1.0

[[record]]
compound = "Brc1ccc(-c2cn3c(c2-c2ccccc2)CCC3)s1"
cat = 0.0

[[record]]
compound = "OCCOc1ccc(C2(c3ccc(OCCO)cc3)CC3CCC2C3)cc1 (centres undefined)"
cat = 0.0

[[record]]
compound = "c1ccc(COc2ccc3ccccc3c2)cc1"
cat = 0.0

[[record]]
compound = "CCC(=O)NC(c1ccco1)c1cc(Cl)c2cccnc2c1O (centres undefined)"
cat = 0.0

[[record]]
compound = "O=C(OCC#CCSc1nnc(-c2cccc3ccccc23)o1)c1ccc(C(F)(F)F)cc1"
cat = 0.0

[[record]]
compound = "Oc1ccc(OCc2ccc3ccccc3n2)cc1C1(c2ccccc2)CC2CCC1C2 (centres undefined)"
cat = 0.0

[[record]]
compound = "CCOc1ccc(-c2ccc(Cn3c(CC(C)(C)C(=O)O)c(SC(C)(C)C)c4cc(OCc5ccc(C)cn5)ccc43)cc2)cn1"
cat = 0.0

